system: SK-HEP1; test: Cytotoxicity against human SKHEP1 cells after 48 hrs by MTT assay; format: functional, cell-based; conditions: SK-HEP1, 48 h
QUANTITY MEASURED: IC50 (µM)
Express the result in µM but write the number alone.

Prompt line: Any idea what its IC50 is? The compound is O=C1OC(=O)c2cc(Oc3ccc4c(c3)C(=O)OC4=O)ccc21
Response line: 199

Prompt line: Same again, this time with C[C@@]12C(=O)OC(=O)[C@]1(C)[C@H]1CC[C@@H]2O1
Response line: 34

Prompt line: Same again, this time with O=C1OC(=O)[C@H]2[C@@H]1[C@H]1C=C[C@@H]2C1
Response line: 151

----------
assay: Cytotoxicity against rat hepatocyte cells assessed as survival at 200 uM after 48 hrs by MTT assay; assay type: cell-based; conditions: rat hepatocytes, read-out: Activity
Entries and their measured viability at 48 h, 200 µM follow.
Express the result in % but write the number alone.

Some compounds with known viability at 48 h, 200 µM results, for comparison:
Prompt line: Any idea what its viability at 48 h, 200 µM is? The compound is O=C1OC(=O)c2cc(Oc3ccc4c(c3)C(=O)OC4=O)ccc21
Response line: 80

Prompt line: Same again, this time with Cc1cnc(/N=C2\OC(=O)C3C2[C@@H]2C=C[C@H]3CC2)s1 (stereo partly drawn)
Response line: 80

# input for lookup
Prompt line: Any idea what its viability at 48 h, 200 µM is? The compound is O=C1OC(=O)[C@H]2[C@@H]1[C@H]1C=C[C@@H]2C1
Response line: 80

----------
tested on: HepG2; assay: Cytotoxicity against human HepG2 cells after 48 hrs by MTT assay; assay type: functional, cell-based; settings: HepG2, 48 h
QUANTITY MEASURED: IC50

Some compounds with known IC50 results, for comparison:
Prompt line: Any idea what its IC50 is? The compound is O=C1C2C(C(=O)N1c1nccs1)[C@H]1C=C[C@@H]2CC1 (stereo partly specified)
Response line: > 200 µM

Prompt line: Same again, this time with O=C1OC(=O)C2C3CCC(O3)C12 (stereo unspecified) [DEMETHYL-CANTHARIDIN]
Response line: 74 µM

Prompt line: Same again, this time with O=C1OC(=O)[C@H]2[C@@H]1[C@H]1C=C[C@@H]2C1
Response line: 62 µM

Others:
Prompt line: Any idea what its IC50 is? The compound is Cc1cnc(N2C(=O)c3ccccc3C2=O)s1
Response line: > 200 µM

Prompt line: Same again, this time with O=C1c2ccccc2C(=O)N1c1nccs1
Response line: > 200 µM

Prompt line: Same again, this time with Cc1ccc2c(c1)C(=O)N(c1nccs1)C2=O
Response line: > 200 µM

----------
Entries and their measured IC50 follow.
tested on: HepG2; test: Cytotoxicity against human HepG2 cells after 48 hrs by MTT assay; type: functional, cell-based; conditions: HepG2, 48 h
Express the result in µM but write the number alone.

Some molecules with known IC50 results, for comparison:
Prompt line: Any idea what its IC50 is? The molecule is C[C@@]12C(=O)OC(=O)[C@]1(C)[C@H]1CC[C@@H]2O1
Response line: 11

Prompt line: Same again, this time with Cc1cnc(/N=C2\OC(=O)C3C2[C@@H]2C=C[C@H]3CC2)s1 (stereo partly specified)
Response line: 92

# input for lookup
Prompt line: Any idea what its IC50 is? The molecule is O=C1OC(=O)c2cc(Oc3ccc4c(c3)C(=O)OC4=O)ccc21
Response line: 121

----------
test system: SK-HEP1; assay: Cytotoxicity against human SKHEP1 cells after 48 hrs by MTT assay; type: functional, cell-based; conditions: SK-HEP1, 48 h
Entries and their measured IC50 follow.

Prompt line: Any idea what its IC50 is? The compound is Cc1cnc(N2C(=O)c3ccccc3C2=O)s1
Response line: > 200 µM

Prompt line: Same again, this time with Cc1ccc2c(c1)C(=O)N(c1nccs1)C2=O
Response line: > 200 µM

Others:
Prompt line: Any idea what its IC50 is? The compound is O=C1C2C(C(=O)N1c1nc3ccccc3s1)[C@H]1C=C[C@@H]2CC1 (stereo partly drawn)
Response line: > 200 µM

----------
Entries and their measured pIC50 follow.
tested on: HepG2; experiment: Cytotoxicity against human HepG2 cells after 48 hrs by MTT assay; assay type: functional, cell-based; conditions: HepG2, 48 h
pIC50: −log10 of the molar value.

Some molecules with known pIC50 results, for comparison:
Prompt line: Any idea what its pIC50 is? The molecule is Cc1cnc(N2C(=O)C3C(C2=O)[C@H]2C=C[C@@H]3CC2)s1 (stereo partly drawn)
Response line: < 3.70

Prompt line: Same again, this time with Cc1ccc2c(c1)C(=O)N(c1nc3ccccc3s1)C2=O
Response line: < 3.70

# input for lookup
Prompt line: Any idea what its pIC50 is? The molecule is O=C1C2C(C(=O)N1c1nc3ccccc3s1)[C@H]1C=C[C@@H]2CC1 (stereo partly drawn)
Response line: < 3.70
